The following binders are shown together with reported interaction score values.
Tgt: T1, 4H3298-bH
T1 chain: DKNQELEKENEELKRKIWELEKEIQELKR
Method notes: two-hybrid library CCNG1;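 further: natural log of median RNA to DNA barcode read ratio; higher means stronger binding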
# answer = number (no unit)

Below, 5 binders whose answers are already recorded.
{"columns": ["Binder", "interaction score"],
 "data": [
  ["DENQELKKENEELERKIWELKKKIQELKR [4H1710-bH]", -0.00934],
  ["DENQELEKEIEELERKNWELKKEIQELER [4H1081-bH]", -0.0402],
  ["DENQELKKKIEELKRKIWELKKENQELER [4H1899-bH]", -0.203],
  ["DENQELEKKIEELKREIWELEKENQELKR [4H1348-bH]", 0.0904],
  ["DENQELKKKNEELKREIWELEKEIQELER [4H1985-bH]", -0.821]
]}

Hello, please tell me recorded interaction score for this one: DKNQELEKENEELKRKIWELEKEIQELKR [4H3298-bH] 1.66

Identify measured interaction score corresponding to DKNQELEKEIEELKRKIWELEKKNQELER [4H3175-bH] -0.132

Query interaction score for DKNQELEKEIEELKRENWELKKEIQELKR [4H3162-bH] -0.633

Identify measured interaction score associated with DKNQELEKENEELKREIWELKKKIQELER [4H3277-bH] -0.709

For DENQELKKEIEELEREIWELEKKNQELKR [4H1544-bH] , write its interaction score. 0.51

Using known records, supply interaction score for DENQELEKKIEELKRENWELKKKIQELER [4H1373-bH] 0.0783
